Test system: HCT-15 colon
assay-procedure: NCI-60 one-dose screen, 48 h (100 = growth as untreated, 0 = no growth, -100 = all killed)
reported-conditions: 10 µM unless noted
About 83,000 compounds went through this panel and 20% of them were active in at least one assay; those are over-represented in the sample as a whole.
reported-metric: growth (%)
// units = %; emit number, no label

Below, 3 compounds whose answers are already recorded.
COc1ccc(-c2nn(-c3ccc(NC(=O)c4ccc(Cl)c(C(F)(F)F)c4)cc3)cc2-c2ccncc2)cc1Cl    -26
CCN(CC)CCNC(=O)c1c(C)[nH]c(/C=C2\C(=O)Nc3cc(NC(=O)NC(=O)c4ccc(OC)cc4F)ccc32)c1C    72.7
O=[N+]([O-])c1ccc(NS(=O)(=O)c2cc(Cl)ccc2Cl)c2ccccc12    54.2

Sample `Nc1nc(=S)ss1` — what was its growth?
91.8

Endpoint output: growth of `CCCCOc1c(N)cccc1C(=O)OCCN(CC)CC` . Value?
109

So what's the measured growth for this one? CC1(C)Cc2c(Br)c(Br)c(Br)c(OCC(O)CN3CCN(c4ccccn4)CC3)c2O1 (stereo not given)
79.7

I have this compound here, `CCCCn1c(-c2cccc(OC)c2)nc2cc(OC)c(OC)cc2c1=O` , and I need its recorded growth.
103

Data request, read-out growth, for CC1CCC(C(C)C)C(NN)C1 (stereo not given)
104

Record request: growth value, item `COc1ccc(-c2nn(-c3ccc(NC(=O)Nc4cc(C(F)(F)F)cc(C(F)(F)F)c4)cc3)cc2-c2ccncc2)cc1Cl`
9.81

So what does the record say about growth for `CCc1ccc(C2=C/C(=C/c3ccc(Cl)cc3)C(=O)N2CCc2ccc(S(N)(=O)=O)cc2)cc1` ?
17.7

Consider the compound `Cn1cnc([N+](=O)[O-])c1N1c2ccncc2Sc2ccncc21` and give its measured growth.
99

====

System: HCT-15 colon
assay-procedure: NCI-60 one-dose screen, 48 h (100 = growth as untreated, 0 = no growth, -100 = all killed)
reported-conditions: 10 µM unless noted
The panel holds about 83,000 compounds, 20% with a hit somewhere; the sample as a whole holds those more often.
reported-metric: growth (%)
Your answer is read as %, so omit the unit and give the number.

Some solved cases for reference:
COc1ccc(-c2ccc(NC(=O)Nc3ccc(Cl)c(C(F)(F)F)c3)c(C)n2)cc1    37.8
c1cncc(-c2nc3ccccc3[nH]2)c1    111
CCOc1cccc(Nc2nc(N)nc3[nH]c4ccc(O)cc4c23)c1    85.4
COc1ccc(-n2c(-c3ccc(NC(=O)CCCl)cc3)nnc2-c2cc(OC)c(OC)c(OC)c2)cc1    41.1
COc1cc(/C=C/C(=O)N2CCC=CC2=O)cc(OC)c1OC    1.7
Nc1nc(Cl)c2c(C(F)(F)F)cn(CC3CCNCC3)c2n1    35.6
COc1cc2c(cc1OC)-c1c(oc3c4c(ccc3c1=O)OC(C)(C)C=C4)CO2    82.8
Clc1ccc(CN2COc3c(ccc4cccnc34)C2)cc1Cl    16.3

Give growth (HCT-15 colon) of the following compound: `COc1ccc(-c2cnc(-c3ccc(F)cc3)[nH]2)cc1`
53.2

Item `O=S(=O)(O)c1ccc(F)cc1` with HCT-15 colon - growth?
104

Find growth (HCT-15 colon) for the entry `Cl[C@@H]1CCO[C@H](c2cc3ccccc3c3ccccc23)C1`
96.9

# returns recorded growth (system: HCT-15 colon) for `C=C1C(=O)O[C@H]2[C@H]1CC/C(C(=O)Nc1ccc(OC)c(C(N)=O)c1O)=C\CC[C@@]1(C)O[C@@H]21`
45.8

Tell me reported growth for `Oc1ccc(Cl)cc1Sc1cc(Cl)ccc1O` , tested with HCT-15 colon.
92.9

For HCT-15 colon, provide growth of `CN(C)CCCOc1c(Br)cc(/C=C/C(=O)N(C)CCc2cc(Br)c(OCCCN(C)C)c(Br)c2)cc1Br` please.
9.92

Value wanted: growth (HCT-15 colon) of entry `O=c1cc(Cl)[nH]c(=O)[nH]1`
107

Give growth (HCT-15 colon) of the following compound: `O=C(Cn1c2ccccc2c2ccncc21)N/N=C\c1ccc2ccccc2c1`
23.8
